# assay-text: Viability qHTS for spleen associated tyrosine kinase inhibitor (SYKi) drug resistant MV4-11 cells (AID 1963824); further: nearly all actives have a fitted effect of over 35% in size; further: potency means the concentration at half of the fitted maximal effect
# run-conditions: SYKi-resistant MV4-11 viability, CellTiter-Glo, 72 h; series mostly up to 45 µM
Records with an inconclusive call do not appear. Calls of active or inactive are those of the source. The call rests on the fitted dose curve; in most records, active means well fitted cell-killing curve with a large enough effect; inconclusive means small, poorly fitted or top-dose-only effect, or effect the other way; inactive means no such curve, though single readings can be large or run the other way.
quantity-measured: Potency

Sample records with Potency:
| molecule | Potency |
| --- | --- |
| C=C1C(=O)O[C@@H]2[C@H]1CCC(C)=C(CCC(=O)O)[C@@]2(C)O | 4.11 µM (active) |
| CCCNC(=O)Nc1ccc(Oc2ncnc3cc(OC)c(OC)cc23)cc1Cl | 0.517 µM (active) |
| Oc1ccc2c(c1)OCC1(O)Cc3cc(O)c(O)cc3C21 (stereo not given) | 3.66 µM (active) |
| C=CC(=O)N1CCC(C2CCNc3c(C(N)=O)c(-c4ccc(Oc5ccccc5)cc4)nn32)CC1 (stereo not given) | 11.8 µM (active) |
| CC(C)[C@@](C)(O)[C@@H]1CN(c2nc(-c3[nH]nc4ncccc34)c(F)cc2Cl)CCN1 | 0.731 µM (active) |
| CC1=NN(c2ccc(C(=O)O)cc2)C(=O)/C1=C/c1ccc(-c2cc(C)c(C)cc2[N+](=O)[O-])o1 | 18.6 µM (active) |
| CCN1CCc2nc(N)oc2CC1 | inactive |
| CC(C)n1ncnc1-c1cn2c(n1)-c1ccc(O[C@@H](C)C(N)=O)cc1OCC2 | 4.68 µM (active) |
| CC(O)C1C(=O)N2C(C(=O)O)=C(SC3CNC(C(=O)N(C)C)C3)C(C)C12 (stereo not given) | inactive |
| NC(CO)(CO)CCc1ccc(Sc2cccc(OCc3ccccc3)c2)cc1Cl | 3.72 µM (active) |

stdin: Which Potency reading was recorded for the molecule CCCCNC(=O)[C@@H]1Cc2ccccc2N1C(=O)[C@@H](N)CC ?
stdout: inactive

stdin: Continue with CCCCCCCCCCCCCCCCN
stdout: inactive

stdin: Record: O=C(CC1NCCC[C@H]1O)Cn1cnc2cc(Br)c(Cl)cc2c1=O (stereo not given in full)
stdout: inactive

stdin: Let us now turn to Cc1ccc(NC(=O)Nc2nnc(Sc3ncnc4cc(OCCCN5CCOCC5)ccc34)s2)cc1
stdout: 0.0166 µM (active)

stdin: And then COc1ccnc2[nH]cc(C(=O)C(=O)N3CCN(C(=O)c4ccccc4)C[C@H]3C)c12 , what is it?
stdout: inactive

stdin: # repeat for COC(c1ccccc1)(c1ccccc1)[C@H](Oc1nc(C)cc(C)n1)C(=O)O
stdout: inactive

stdin: Please answer likewise for O=C(O)[C@@H]1C[C@H]2C[C@@H](CCc3nn[nH]n3)CC[C@H]2CN1
stdout: inactive

stdin: Further, for COc1cc(/C=C/C(=O)O[C@H]2C[C@@H]3C(C(=O)O)=CO[C@@H](O[C@@H]4O[C@H](CO)[C@@H](O)[C@H](O)[C@H]4O)[C@@H]3[C@H]2C)ccc1O ?
stdout: inactive

stdin: Continue with Cc1ccc(S(=O)(=O)NC(=O)NC2CCCCC2)cc1
stdout: inactive

stdin: Same question for CC(C)(O)CC(CO)NC(=O)CC(O)CC(=O)Cc1ccccc1 (stereo not given) please.
stdout: inactive

* * *

# assay-text: Quantitative highthroughput screen to assess conditional lethalithy of NOMO1 cells grown in RPMI1640 with untreated serum (RPMI+s) (AID 1963876); further: nearly all actives have a fitted effect of over 35% in size
# run-conditions: NOMO1 AML cells in RPMI+serum, CellTiter-Glo viability, 48 h; series mostly up to 45.8 µM
Records with an inconclusive call do not appear. Activity calls are given as the source filed them. Calls come from the whole dose curve; as a rule, active = well fitted cell-killing curve with a large enough effect; inconclusive = small, poorly fitted or top-dose-only effect; inactive = flat fitted curve, though single readings scatter.
Write down the outcome that applies. Available outcomes: Yes for active, No for inactive

stdin: # fetch the recorded call for COc1ccc(CCN2CCN(CCCc3ccccc3)CC2)cc1OC here
stdout: No

stdin: One more molecule: CN1C(=O)C[C@H](C(=O)N[C@@H](Cc2cnc[nH]2)C(=O)N2CCC[C@@H]2C(N)=O)NC1=O
stdout: No

stdin: How about this molecule: O=C(C=CC#Cc1cccc(NS(=O)(=O)c2ccccc2)c1)NO
stdout: Yes

stdin: Now consider CC1=NN(c2ccccc2)C(=O)C1 .
stdout: No

stdin: Thanks! And OCC(O)C(O)C(O)CO (stereo not given) ?
stdout: No

stdin: # repeat for OC[C@H]1O[C@@H](OCCc2ccc(O)cc2)[C@H](O)[C@@H](O)[C@H]1O
stdout: No

stdin: Consider next the molecule COCCCOc1cc(C[C@@H](C[C@H](N)[C@@H](O)C[C@H](C(=O)NCC(C)(C)C(N)=O)C(C)C)C(C)C)ccc1OC in the same way.
stdout: No

stdin: Cool, now OC[C@@H](O)[C@@H](O)[C@H](O)[C@@H](O)CO
stdout: No

stdin: Param item: O=C1NC(=O)C(=Cc2ccc3nccc(-c4ccncc4)c3c2)S1
stdout: Yes

stdin: What would you report for CNC(=O)CN1CCC(Oc2cc3c(Nc4cccc(Cl)c4F)ncnc3cc2OC)CC1 ?
stdout: Yes

* * *

# assay-text: Quantitative highthroughput screen to assess conditional lethalithy of NOMO1 cells grown in RPMI1640 with untreated serum (RPMI+s) (AID 1963876); further: nearly all actives have a fitted effect of over 35% in size
# run-conditions: NOMO1 AML cells in RPMI+serum, CellTiter-Glo viability, 48 h; series mostly up to 45.8 µM
Inconclusive results are not listed. Activity calls are given as the source filed them. The call rests on the fitted dose curve; in most records, active means well fitted cell-killing curve with a large enough effect; inconclusive means small, poorly fitted or top-dose-only effect; inactive means flat fitted curve, though single readings scatter. Square brackets hold non-standard residues; d marks the D form. Peptide text beside a SMILES is read from it. * marks the point of attachment. Nva = CCC[C@H](N)C(=O)O; Cbz = O=C(OCc1ccccc1)*
The categories you may choose from are active, inactive

stdin: What classification did CNc1nccc(-c2cccnc2Oc2cc(C(=O)Nc3cccc(C(F)(F)F)c3)ccc2C)n1 end up with in this test?
stdout: inactive

stdin: Now try CNC(=O)Nc1ccc(-c2nc(N3CC4CCC(C3)O4)c3cnn(C4CCC5(CC4)OCCO5)c3n2)cc1 .
stdout: active

stdin: Item: COc1ccc(C[C@@H](C)[C@@H](C)Cc2ccc(OC)c(OC)c2)cc1OC
stdout: active

stdin: Now the same for CC(=Cc1ccccc1)C=C1SC(=S)N(CC(=O)O)C1=O
stdout: inactive

stdin: Also O=C(NC(Cc1cc(=O)[nH]c2ccccc12)C(=O)O)c1ccc(Cl)cc1 (centres undefined) ?
stdout: inactive

stdin: Also CC(=O)O[C@]1(C(C)=O)CC[C@H]2[C@@H]3C=C(C)C4=CC(=O)CC[C@]4(C)[C@@H]3CC[C@@]21C ?
stdout: inactive

stdin: What do you get for CCC[C@@H](C=O)NC(=O)[C@H](CC(C)C)NC(=O)[C@H](CC(C)C)NC(=O)OCc1ccccc1 (Cbz-Leu-Leu-[Nva]-aldehyde) ?
stdout: active

stdin: // next record CC(NCc1ccc2c(c1)nc(NC(=O)c1ccc(-c3cn[nH]c3)s1)n2CC(C)(C)O)C(C)(C)C (centres undefined)
stdout: active

stdin: // repeat for COc1cc(=C2C=c3ccccc3=N2)[nH]c1=Cc1[nH]c(C)cc1C and report
stdout: inactive

stdin: Entry CN(C)CCN(C)C(=O)c1ccc(NC(=O)Nc2ccc(-c3nc(N4CCOCC4)c4ccn(CC(F)(F)F)c4n3)cc2)cc1 please
stdout: active

stdin: Check CCCCCCCCc1ccc(CCC(N)(CO)CO)cc1 too.
stdout: active

stdin: Now consider Fc1ccc(C(c2ccc(F)cc2)N2CCN(CC=Cc3ccccc3)CC2)cc1 and answer again.
stdout: inactive

stdin: Also CN(CCOc1ccc(NS(C)(=O)=O)cc1)CCc1ccc(NS(C)(=O)=O)cc1 , if possible.
stdout: inactive

stdin: Same thing, different molecule: CN(C(Cc1ccc(OS(=O)(=O)c2cccc3cnccc23)cc1)C(=O)N1CCN(c2ccccc2)CC1)S(=O)(=O)c1cccc2cnccc12 (centres undefined)
stdout: inactive

stdin: Repeat with Oc1c(Cl)cc(Cl)c2cccnc12
stdout: inactive

stdin: Entry CN[C@@H](C)[C@H]1[C@H](O)C[C@@]2(C)[C@@H]3CC[C@H]4C(C)(C)[C@@H](NC)CC[C@@]45C[C@@]35CC[C@]12C please
stdout: inactive

stdin: Try this molecule too: O=C(O)CCNC(=O)c1ccc(N=Nc2ccc(O)c(C(=O)O)c2)cc1
stdout: inactive

stdin: Again, but for COc1cc([C@@H]2c3cc4c(cc3[C@H](O)[C@H]3COC(=O)[C@@H]23)OCO4)cc(OC)c1OC
stdout: active

stdin: Follow-up entry: CCN(CC)CCOc1ccc(Cc2ccccc2)cc1
stdout: active

* * *

# assay-text: Viability qHTS for spleen associated tyrosine kinase inhibitor (SYKi) drug resistant MV4-11 cells (AID 1963824); further: nearly all actives have a fitted effect of over 35% in size
# run-conditions: SYKi-resistant MV4-11 viability, CellTiter-Glo, 72 h; series mostly up to 45 µM
Results filed as inconclusive are left out. Activity calls are given as the source filed them. Calls follow the shape of the dose curve; as a rule, active = well fitted cell-killing curve with a large enough effect; inconclusive = small, poorly fitted or top-dose-only effect, or effect the other way; inactive = no such curve, though single readings can be large or run the other way.
Pick from true for active, false for inactive when you respond.

stdin: I would be grateful if you could indicate the recorded call for COc1cc(Nc2cnc(C#N)c(O[C@H](C)CN(C)C)n2)ncc1-c1cnn(C)c1 .
stdout: true

stdin: Now consider CCN1CCN(c2cc(-c3ccc(F)cc3)c3c(n2)CCCCCC3)CC1 .
stdout: false

stdin: What do we get for CC(C)c1ccc(NC(=O)C(c2ccccc2)N(C)C(=O)Cc2c[nH]c3ccccc23)cc1 (stereo not given) ?
stdout: true

stdin: Another compound to check: Cc1cc(-c2cnn3c(NCC4CC(C)(O)C4)cc(Oc4cccnc4)nc23)ccc1C(=O)NC1CC1 (stereo not given)
stdout: true

stdin: Also O=C(O)c1cccc(S(=O)(=O)N2CCc3ccccc3C2)c1 ?
stdout: false

stdin: And for CCC(C)C(N)C(=O)NCCN1CCOCC1 (stereo not given) ?
stdout: false

stdin: What do you get for C=C(C)C1Cc2cc(C(=O)OC3OC(CO)C(O)C(O)C3O)ccc2O1 (stereo not given) ?
stdout: false

stdin: Would you kindly repeat that for CC1CCC2(C(=O)OC3OC(CO)C(O)C(O)C3O)CCC3(C)C(=CCC4C5(C)CC(O)C(O)C(C)(C(=O)O)C5CCC43C)C2C1(C)O (stereo not given) ?
stdout: false

stdin: Thanks! And CC(Oc1ccc(O)cc1)(P(=O)(O)O)P(=O)(O)O ?
stdout: false

stdin: Please answer likewise for CC(C)(Oc1ccc(C2CC2(Cl)Cl)cc1)C(=O)O (stereo not given)
stdout: false
